Biological target: PDE1C (Homo sapiens, UniProt Q14123)
Construct: made in house; host or cells: SF9 insect cells (crude lysate used as enzyme source)
Experiment: PDE enzymatic activity assay (SPA), PDE1C, cAMP as substrate
Format: biochemical
Settings: ratio IC50 PDE1C / IC50 PDE9A; for illustrative purposes
Measure: Selectivity = IC50 PDE 1C/IC50 PDE9A (both nanomolar)
Respond numerically, and do not add a unit to the figure.

## Input Request - read-out Selectivity = IC50 PDE 1C/IC50 PDE9A (both nanomolar) | tested on PDE1C (Homo sapiens, UniProt Q14123) | molecule O=C(c1cccc(-n2ncc3c(=O)[nH]c(Cc4ccccc4OC(F)(F)F)nc32)c1)N1CCOCC1 [Example 38]
## Output 9

## Input Request - read-out Selectivity = IC50 PDE 1C/IC50 PDE9A (both nanomolar) | tested on PDE1C (Homo sapiens, UniProt Q14123) | molecule Cc1cc(F)ccc1-n1ncc2c(=O)[nH]c(Cc3ccccc3OC(F)(F)F)nc21 [Example 17]
## Output 9

## Input Request - read-out Selectivity = IC50 PDE 1C/IC50 PDE9A (both nanomolar) | tested on PDE1C (Homo sapiens, UniProt Q14123) | molecule O=c1[nH]c(Cc2ccccc2OC(F)(F)F)nc2c1cnn2-c1cccc(Cl)c1Cl [Example 29]
## Output 9

The reported numbers originate from patent US8648085B2.
